Molecular target: T1, IFN-αJ1 (human, UniProt P01567 24-189)
T1 construct: Recombinant, HEK293; also called IFN-α7
Assay: ProteOn SPR, cell supernatant;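 also: each binding measurement used just a single antigen concentration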
The reader will find reported log10(Kd) values listed item by item below.
Each number you see is log10 of Kd, and the unit inside the log is nM.

Completed entries (count: 2):
{"columns": ["binder", "reported-measurement"],
 "data": [
  ["IFWM3388 (antibody, IgG1, V domains shown, mAb; IgG1/kappa said of the parent and of selected mAbs; also called IFWB3123) VH: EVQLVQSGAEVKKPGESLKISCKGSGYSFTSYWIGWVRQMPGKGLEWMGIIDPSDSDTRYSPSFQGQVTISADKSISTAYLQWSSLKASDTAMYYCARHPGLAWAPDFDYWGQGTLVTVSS VL: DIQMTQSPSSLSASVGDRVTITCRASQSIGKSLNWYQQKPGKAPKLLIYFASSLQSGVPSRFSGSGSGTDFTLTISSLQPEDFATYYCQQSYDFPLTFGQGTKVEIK", -1.26],
  ["IFWM3391 (antibody, IgG1, V domains shown, mAb; IgG1/kappa said of the parent and of selected mAbs; also called IFWB3126) VH: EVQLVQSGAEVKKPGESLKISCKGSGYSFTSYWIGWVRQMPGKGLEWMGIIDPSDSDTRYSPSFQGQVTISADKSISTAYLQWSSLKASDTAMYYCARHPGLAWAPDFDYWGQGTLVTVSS VL: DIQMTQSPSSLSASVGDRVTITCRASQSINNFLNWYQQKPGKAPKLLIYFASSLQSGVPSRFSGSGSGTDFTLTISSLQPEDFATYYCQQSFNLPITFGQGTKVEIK", -1.18]
]}

Problem: Param item = IFWM3401 (antibody, IgG1, V domains shown, mAb; IgG1/kappa said of the parent and of selected mAbs; also called IFWB3136) VH: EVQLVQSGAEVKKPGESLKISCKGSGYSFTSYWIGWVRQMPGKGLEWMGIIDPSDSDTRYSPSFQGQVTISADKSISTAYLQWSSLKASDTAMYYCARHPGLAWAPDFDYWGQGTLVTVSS VL: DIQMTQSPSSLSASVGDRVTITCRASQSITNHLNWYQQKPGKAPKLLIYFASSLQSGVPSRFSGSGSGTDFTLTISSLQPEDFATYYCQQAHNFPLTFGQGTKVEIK ; retrieve measured log10(Kd).
Result: -1.11

Problem: // repeat for IFWM3392 (antibody, IgG1, V domains shown, mAb; IgG1/kappa said of the parent and of selected mAbs; also called IFWB3127) VH: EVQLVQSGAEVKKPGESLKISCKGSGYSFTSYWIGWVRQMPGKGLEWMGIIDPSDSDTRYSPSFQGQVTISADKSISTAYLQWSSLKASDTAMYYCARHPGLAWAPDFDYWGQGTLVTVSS VL: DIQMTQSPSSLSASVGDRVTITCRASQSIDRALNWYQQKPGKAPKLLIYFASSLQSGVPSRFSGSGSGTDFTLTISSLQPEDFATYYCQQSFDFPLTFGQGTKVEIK and report
Result: -1.68

Problem: // repeat for IFWM3378 (antibody, IgG1, V domains shown, mAb; IgG1/kappa said of the parent and of selected mAbs; also called IFWB3113) VH: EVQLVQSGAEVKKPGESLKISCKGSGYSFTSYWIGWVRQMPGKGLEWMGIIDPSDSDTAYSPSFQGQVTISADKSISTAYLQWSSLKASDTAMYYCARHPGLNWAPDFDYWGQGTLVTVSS VL: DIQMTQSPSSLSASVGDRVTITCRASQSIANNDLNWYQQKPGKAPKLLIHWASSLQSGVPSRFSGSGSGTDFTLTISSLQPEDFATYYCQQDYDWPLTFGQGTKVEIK and report
Result: -0.30

Data credit: patent US20150368338A1
